These entries and their values trace back to patent US7998965B2.

Listing of entries alongside the reported IC50.
- SYSTEM_UNDER_TEST: purified recombinant human Aggrecanase-1 (rAgg1) (Homo sapiens, UniProt O75173)
- ASSAY_EXPLANATION: In vitro fluorescence screen for Aggrecanase-1 inhibitors
- Assay type: biochemical
- APPLIED_CONDITIONS: Table 2; read-out: Agg1 IC50
ASSAY_READOUT: IC50

COMPOUND	OBS_VALUE
CC(C)(Cc1ccc(F)cc1)NC(=O)[C@H](CCC(=O)O)NC(=O)c1ccc2c(c1)Cc1ccccc1-2	< 30 nM
COc1cccc(-c2ccc(C(=O)N[C@@H](CCC(=O)O)C(=O)NCc3cc(OC)c(OC)c(OC)c3)cc2)c1 [Example 17C]	< 30 nM
O=C(O)CC[C@H](NC(=O)c1ccc(Oc2ccccc2)cc1)C(=O)NC12CC3CC(CC(C3)C1)C2	> 17000 nM
COc1cccc(-c2ccc(C(=O)N[C@@H](CCC(=O)O)C(=O)NC(C)(C)Cc3ccc(F)cc3)cc2)c1 [Example 17EE]	< 30 nM
Cc1cccc(-c2ccc(C(=O)N[C@@H](CCC(=O)O)C(=O)NC(C)(C)Cc3ccc(F)cc3)cc2)c1 [Example 17Y]	< 30 nM

###

- SYSTEM_UNDER_TEST: purified recombinant human Aggrecanase-1 (rAgg1) (Homo sapiens)
- ASSAY_EXPLANATION: In vitro fluorescence screen for Aggrecanase-1 inhibitors
- Format: biochemical
- APPLIED_CONDITIONS: Table 3; read-out: Agg1 IC50
pIC50: −log10 of the molar value.
Below, each entry is listed with its recorded pIC50.

CHEMICAL_STRUCTURE	VALUE_MODIFIER	pIC50
CC(C)(Cc1ccc(F)cc1)NC(=O)[C@H](CCC(=O)O)NC(=O)c1ccc(-c2ccc(F)c(Cl)c2)cc1	=	7.24
CC(C)(Cc1ccc(F)cc1)NC(=O)[C@H](CCC(=O)O)NC(=O)c1ccc(-c2ccccc2)s1	>	7.52
CC(C)(Cc1ccccc1)NC(=O)[C@H](CCC(=O)O)NC(=O)c1ccc(-c2ccc(F)c(Cl)c2)s1	>	7.52
CC(C)(Cc1ccccc1)NC(=O)[C@H](CCC(=O)O)NC(=O)c1ccc(-c2cncnc2)cc1	=	6.70
CC(C)(Cc1ccccc1)NC(=O)[C@H](CCC(=O)O)NC(=O)c1ccc(-c2ccccc2)nc1	=	7.00

###

Entries and their measured pIC50 follow.
- SYSTEM_UNDER_TEST: purified recombinant human Aggrecanase-2 (Ag2t-Phe628-Strep) (Homo sapiens, UniProt Q9UNA0)
- Construct: the form used is denoted as Ag2t-Phe628-Strep (MW=41,737)
- Sequence (Q9UNA0 262-628): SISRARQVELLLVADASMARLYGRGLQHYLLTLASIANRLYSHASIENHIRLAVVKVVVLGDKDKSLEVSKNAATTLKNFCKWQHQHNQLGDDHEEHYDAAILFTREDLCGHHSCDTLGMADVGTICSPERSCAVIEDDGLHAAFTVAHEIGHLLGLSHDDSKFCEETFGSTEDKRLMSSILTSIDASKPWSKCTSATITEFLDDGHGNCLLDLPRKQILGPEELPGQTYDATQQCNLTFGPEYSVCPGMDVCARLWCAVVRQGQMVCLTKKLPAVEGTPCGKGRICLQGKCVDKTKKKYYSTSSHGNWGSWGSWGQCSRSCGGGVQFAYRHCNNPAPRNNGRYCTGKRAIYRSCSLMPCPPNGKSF
- ASSAY_EXPLANATION: In vitro fluorescence screen for Aggrecanase-2 inhibitors
- Format: biochemical
- APPLIED_CONDITIONS: Table 3; read-out: Agg 2 IC50
pIC50: −log10 of the molar value.
ASSAY_READOUT: pIC50

CHEMICAL_STRUCTURE	OBS_VALUE
CC(C)(Cc1ccc(F)cc1)NC(=O)[C@H](CCC(=O)O)NC(=O)c1ccc(-c2ccc(Cl)cc2)s1	< 7.00
CC(C)(Cc1ccc(F)cc1)NC(=O)[C@@H](CCC(=O)O)NC(=O)c1ccc(-c2ccc(Cl)s2)cc1	< 5.57
CC(C)(Cc1ccc(F)cc1)NC(=O)[C@H](CCC(=O)O)NC(=O)c1ccc(-c2ccc(F)c(Cl)c2)s1	7.01
CC(C)(Cc1ccccc1)NC(=O)[C@H](CCC(=O)O)NC(=O)c1ccc(-c2ccc(Br)s2)cc1	~7.52
CC(C)(Cc1ccc(Cl)cc1)NC(=O)[C@H](CCC(=O)O)NC(=O)c1ccc(-c2cccs2)cc1	7.15 to 7.70

###

Item-by-item account of IC50
- SYSTEM_UNDER_TEST: purified recombinant human Aggrecanase-1 (rAgg1) (Homo sapiens, UniProt O75173)
- Sequence (O75173 213-837): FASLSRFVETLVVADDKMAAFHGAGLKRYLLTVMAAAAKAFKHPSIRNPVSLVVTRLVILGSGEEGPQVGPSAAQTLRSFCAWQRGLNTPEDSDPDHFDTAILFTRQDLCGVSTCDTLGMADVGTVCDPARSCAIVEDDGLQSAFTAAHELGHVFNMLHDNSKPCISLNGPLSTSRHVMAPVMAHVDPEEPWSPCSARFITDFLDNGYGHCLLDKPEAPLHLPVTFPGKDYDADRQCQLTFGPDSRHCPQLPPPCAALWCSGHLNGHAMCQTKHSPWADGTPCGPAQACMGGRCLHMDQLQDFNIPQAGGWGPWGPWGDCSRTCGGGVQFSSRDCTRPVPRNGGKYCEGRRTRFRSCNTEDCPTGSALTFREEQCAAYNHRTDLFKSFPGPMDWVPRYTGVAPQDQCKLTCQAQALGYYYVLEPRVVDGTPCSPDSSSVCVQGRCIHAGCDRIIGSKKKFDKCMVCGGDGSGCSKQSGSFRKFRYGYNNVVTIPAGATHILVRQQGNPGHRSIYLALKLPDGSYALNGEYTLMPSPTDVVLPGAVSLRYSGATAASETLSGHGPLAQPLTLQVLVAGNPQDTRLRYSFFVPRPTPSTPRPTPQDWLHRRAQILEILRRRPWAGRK
- ASSAY_EXPLANATION: In vitro fluorescence screen for Aggrecanase-1 inhibitors
- Assay type: biochemical
- APPLIED_CONDITIONS: Table 1; read-out: Agg1 IC50

COMPOUND	IC50
COc1cccc(CNC(=O)[C@H](CCC(=O)O)NC(=O)c2ccc(-c3ccccc3C)c(C)c2)c1 [Example 22C]	> 50 µM
COc1cc(CNC(=O)[C@H](CCC(=O)O)NC(=O)c2ccc3c(c2)Cc2ccccc2-3)cc(OC)c1OC [Example 8KKKK]	< 0.03 µM
CCOc1ccccc1-c1ccc(C(=O)N[C@@H](CCC(=O)O)C(=O)NCc2ccccc2)cc1 [Example 13E]	~25 µM
O=C(O)CC[C@H](NC(=O)c1cccc2c1Cc1ccccc1-2)C(=O)NCCCc1ccccc1 [Example 8JJJJ]	> 50 µM
O=C(CC[C@H](NC(=O)c1ccc(-c2ccccc2)cc1)C(=O)NCc1cccc(OC(F)(F)F)c1)NO [Example 33D]	< 0.01 µM
CCCCCCNC(=O)[C@H](CCC(=O)O)NC(=O)c1cccc2c1Cc1ccccc1-2 [Example 8PPPP]	> 50 µM
CC(C)(Cc1ccc(Cl)cc1)NC(=O)[C@H](CCC(=O)O)NC(=O)c1ccc(-c2ccccc2)cc1 [Example 8NN]	< 0.03 µM
CCCCCCNC(=O)[C@H](CCC(=O)O)NC(=O)c1ccc2c(c1)C(=O)c1ccccc1-2 [Example 8RRRR]	0.122 µM
CC(C)(Cc1ccc(Cl)cc1)NC(=O)[C@H](CCC(=O)O)NC(=O)c1ccc2c(c1)Cc1ccccc1-2 [Example 6E]	0.056 µM
Cc1ccccc1CNC(=O)[C@H](CCC(=O)O)NC(=O)c1ccc(-c2ccccc2)cc1 [Example 8EE]	0.2 µM
CCOc1ccccc1-c1ccc(CCNC(=O)[C@H](CCC(=O)O)NC(=O)c2ccc(-c3ccccc3)cc2)cc1 [Example 10E]	0.37 µM

###

- SYSTEM_UNDER_TEST: purified recombinant human Aggrecanase-2 (Ag2t-Phe628-Strep) (Homo sapiens)
- Construct: the form used is denoted as Ag2t-Phe628-Strep (MW=41,737)
- Sequence (Q9UNA0 262-628): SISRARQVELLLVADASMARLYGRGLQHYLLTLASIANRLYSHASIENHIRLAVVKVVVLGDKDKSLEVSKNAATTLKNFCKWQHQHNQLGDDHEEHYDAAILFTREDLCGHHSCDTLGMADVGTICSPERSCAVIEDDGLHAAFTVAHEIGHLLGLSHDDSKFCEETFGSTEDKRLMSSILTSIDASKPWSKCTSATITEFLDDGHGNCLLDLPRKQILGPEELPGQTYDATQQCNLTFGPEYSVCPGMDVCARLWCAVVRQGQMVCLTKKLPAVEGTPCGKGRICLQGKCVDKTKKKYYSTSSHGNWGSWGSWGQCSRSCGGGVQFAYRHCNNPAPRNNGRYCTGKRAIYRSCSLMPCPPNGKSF
- ASSAY_EXPLANATION: In vitro fluorescence screen for Aggrecanase-2 inhibitors
- Type: biochemical
- APPLIED_CONDITIONS: Table 1; read-out: Agg 2 IC50
ASSAY_READOUT: IC50 (nM)

COMPOUND	ASSAY_READOUT	VALUE_MODIFIER	OBS_VALUE
O=C(O)CC[C@H](NC(=O)c1ccc(-c2ccccc2)cc1)C(=O)NCCCCCCO	IC50	=	930
CC(C)(C)CNC(=O)[C@H](CCC(=O)O)NC(=O)c1ccc(-c2ccccc2)cc1	IC50	=	660
COc1ccc(CNC(=O)[C@H](CCC(=O)O)NC(=O)c2ccc(-c3ccccc3)cc2)cc1OC	IC50	=	304
CC(C)(C)NC(=O)[C@H](CCC(=O)O)NC(=O)c1ccc(-c2ccccc2)cc1	IC50	=	470
CCCNC(=O)[C@H](CCC(=O)O)NC(=O)c1ccc(-c2ccccc2)cc1	IC50	=	1600
COc1ccc(CCNC(=O)[C@H](CCC(=O)O)NC(=O)c2ccc(-c3ccccc3)cc2)cc1OC	IC50	=	189
O=C(O)CC[C@H](NC(=O)c1ccc(-c2ccccc2)cc1)C(=O)NCc1cccc(I)c1	IC50	=	1100
O=C(O)CC[C@H](NC(=O)c1ccc(-c2ccccc2)cc1)C(=O)NC1CCCCC1	IC50	=	900
O=C(CC[C@H](NC(=O)c1ccc(-c2ccccc2)cc1)C(=O)NCc1cccc(OC(F)(F)F)c1)NO [Example 33D]	IC50	=	13.4
O=C(O)CC[C@H](NC(=O)c1ccc(-c2ccccc2)cc1)C(=O)NCCc1ccc(-c2ccc(C(F)(F)F)cc2)cc1 [Example 10A]	IC50	=	2100
O=C(O)CC[C@H](NC(=O)c1ccc(-c2ccccc2)cc1)C(=O)NCCc1ccc(-c2ccccc2)cc1 [Example 10C]	IC50	>	5000
C=Cc1ccc(CNC(=O)[C@H](CCC(=O)O)NC(=O)c2ccc(-c3ccccc3)cc2)cc1 [Example 10R]	IC50	=	1900
O=C(O)CC[C@H](NC(=O)c1ccc(-c2ccccc2)cc1)C(=O)NCCc1ccc(F)cc1	IC50	=	800
O=C(O)CC[C@H](NC(=O)c1ccc(-c2ccccc2)cc1)C(=O)NCCC(c1ccccc1)c1ccccc1	IC50	=	1000
O=C(O)CC[C@H](NC(=O)c1ccc(-c2ccccc2)cc1)C(=O)NCc1ccc(I)cc1	IC50	=	990
O=C(O)CC[C@H](NC(=O)c1ccc(-c2ccccc2)cc1)C(=O)NCc1cccc(-c2ccccn2)c1 [Example 10Q]	IC50	=	3000
CCC(C)(C)NC(=O)[C@H](CCC(=O)O)NC(=O)c1ccc(-c2ccccc2)cc1	IC50	=	980
CC(C)(Cc1ccccc1)NC(=O)[C@H](CCC(=O)O)NC(=O)c1ccc(-c2ccccc2)cc1	IC50	=	85
O=C(O)CC[C@H](NC(=O)c1ccc(-c2ccccc2)cc1)C(=O)NCCc1cccs1	IC50	=	350
O=C(O)CC[C@H](NC(=O)c1ccc(-c2ccccc2)cc1)C(=O)NC1C2CC3CC(C2)CC1C3 (stereo partly shown)	IC50	=	266
